tested_system: cathepsin L (Homo sapiens)
Construct: purchased Calbiochem 219402
Sequence (P07711 114-288 limits assumed): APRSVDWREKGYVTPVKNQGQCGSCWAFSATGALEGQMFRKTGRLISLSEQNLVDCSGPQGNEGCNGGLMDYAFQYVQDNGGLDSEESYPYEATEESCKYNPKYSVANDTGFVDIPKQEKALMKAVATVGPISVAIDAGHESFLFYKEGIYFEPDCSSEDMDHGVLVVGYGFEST
Sequence (P07711 292-333 limits assumed): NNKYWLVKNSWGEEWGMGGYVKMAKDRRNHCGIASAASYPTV
procedure_summary: Inhibition of cathepsin L
Assay type: biochemical
measurement_conditions: 1 uM; Cbz-Phe-Arg-AMC 0.006 mM, pH 6.0
The molecules listed here are annotated with their Cat L % I @ 1 uM.
Give just the numeric value; % need not be written.

These recorded examples may help you get a feel for the data.
molecule: CC(C)CC(CC(=O)N1CCN(c2ccccc2)CC1)C(=O)N[C@H](C=O)CC(C)C (single isomer, unassigned) [Compound 16g-II, Ph-Piperazine-COCH2 CH(iBu)CO-Leu-H]
Cat L % I @ 1 uM [%]: 35

molecule: CC(C)CC(CC(=O)N1CCc2ccccc2C1)C(=O)N[C@H](C=O)Cc1ccccc1 (single isomer, unassigned) [Compound 16f-II]
Cat L % I @ 1 uM [%]: 52

molecule: CC(C)CC(CC(=O)N1CCc2ccccc2C1)C(=O)N[C@H](C=O)Cc1ccccc1 (single isomer, unassigned) [Compound 16f-I, 2-THIQ-COCH2 CH(iBu)Cd-Phe-H]
Cat L % I @ 1 uM [%]: 96

Turning to the following molecule.
Return reported Cat L % I @ 1 uM for target or system cathepsin L (Homo sapiens), item CC(C)CC(CC(=O)N1CCN(c2ccccc2)CC1)C(=O)N[C@H](C=O)CC(C)C (single isomer, unassigned) [Compound 16g-I, Ph-Piperazine-COCH2 CH(iBu)CO-Leu-H] . 97

###

tested_system: thrombin (Homo sapiens, UniProt P00734)
Construct: purchased Sigma Chem. Co. T-7009
procedure_summary: Inhibition of thrombin
Type: biochemical
measurement_conditions: 25 μM Bz-Phe-Val-Arg-AMC, pH 7.5, read-out: Thrombin % I @ 10 uM
value_kind: inhibition at 10 µM (%)
Give just the numeric value; % need not be written.

compound: CC(C)CC(CC(=O)N1CCN(c2ccccc2)CC1)C(=O)N[C@H](C=O)CC(C)C (single isomer, unassigned) [Compound 16g-I, Ph-Piperazine-COCH2 CH(iBu)CO-Leu-H]
uom: %
inhibition at 10 µM: 0

compound: CC(C)CC(CC(=O)C1c2ccccc2Oc2ccccc21)C(=O)NC(Cc1ccccc1)C(=O)CF (racemic) [Compound 14b, Xanthene-COCH2 CH(iBu)CO-Phe-CH2 F]
uom: %
inhibition at 10 µM: 9

compound: CC(C)CC(CC(=O)CCCCc1ccccc1)C(=O)N[C@H](C=O)CC(C)C (stereo partly drawn) [Compound 16a, Ph(CH2)4 COCH2 CH(iBu)CO-Leu-H]
uom: %
inhibition at 10 µM: 0

compound: CC(C)CC(CC(=O)[C@H](CC(C)C)NC(=O)OCc1ccccc1)C(=O)NC(Cc1ccccc1)C(=O)CF (stereo partly drawn) [Compound 14c, Z-Leu-CH2 CH(iBu)CO-Phe-CH2 F]
uom: %
inhibition at 10 µM: 0

compound: CC(C)CC(CC(=O)C1c2ccccc2Oc2ccccc21)C(=O)N[C@H](C=O)CC(C)C (stereo partly drawn) [Compound 16d, Xanthene-COCH2 CH(iBu)CO-Leu-H]
uom: %
inhibition at 10 µM: 25

compound: CCNC(=O)C(=O)C(CC)NC(=O)C(CC(=O)[C@H](CC(C)C)NC(=O)OCc1ccccc1)CC(C)C (stereo partly drawn)
uom: %
inhibition at 10 µM: 0

Return reported inhibition at 10 µM for target or system thrombin (Homo sapiens, UniProt P00734), item CCNC(=O)C(=O)C(CC)NC(=O)C(CC(=O)C1c2ccccc2Oc2ccccc21)CC(C)C (stereo not drawn) . 10

Return reported inhibition at 10 µM for target or system thrombin (Homo sapiens, UniProt P00734), item CCNC(=O)C(=O)C(CC)NC(=O)C(CC(=O)C(c1ccccc1)c1ccccc1)CC(C)C (stereo not drawn) . 0

Reference source: patent US6329377A
